# EXPERIMENTAL PROTOCOL: qHTS assay to identify small molecule antagonists of the thyroid receptor (TR) signaling pathway - cell viability counter screen (AID 743064); further: nearly all actives have a fitted effect of over 50% in size
# STATED CONDITIONS: GH3.TRE-Luc viability, CellTiter-Fluor, 24 h; series mostly up to 70.3 µM
Inconclusive results are not listed. Calls of active or inactive are those of the source. The call rests on the fitted dose curve; in most records, active means well fitted cell-killing curve with a large enough effect in the repeat runs; inconclusive means weak or mixed curves, or effect the other way; inactive means no such curve, though single readings can be large or run the other way.
QUANTITY KIND: outcome

CC(C)CP(=S)(S)CC(C)C :: inactive
COP(=S)(OC)Oc1c(Cl)cc(C)cc1Cl :: inactive
CNC(=O)Oc1c(C(C)(C)C)cc(C)cc1C(C)(C)C :: inactive

###

# Test system: thyroid hormone receptor (rat, GH3 cells)
# EXPERIMENTAL PROTOCOL: qHTS assay to identify small molecule agonists of the thyroid receptor (TR) signaling pathway (AID 743066)
# STATED CONDITIONS: GH3.TRE-Luc cells, TR agonist luciferase, 24 h; series mostly up to 83.9 µM
Inconclusive results are not listed. The source made the active and inactive calls. The call rests on the fitted dose curve.
Mark one answer only. Choices: YES = active, NO = inactive

Here are 3 molecules together with their reported answers.
CC(Oc1ccc(Oc2ncc(C(F)(F)F)cc2Cl)cc1)C(=O)O (stereo not given) :: NO
CCC1(c2ccccc2)C(=O)NC(=O)NC1=O :: NO
CCOP(=S)(OCC)Oc1cc(-c2ccccc2)on1 :: NO

Okay, next one:
Exam item: Answer briefly: the call reported for Cc1nc(N)nc(N)n1 in this assay.
Marked response: NO

###

# TEST SYSTEM: Nuclear receptor subfamily 1 group I member 3 (Homo sapiens)
# EXPERIMENTAL PROTOCOL: qHTS assay to identify small molecule agonists of the constitutive androstane receptor (CAR) signaling pathway (AID 1224839); further: nearly all actives have a fitted effect of over 15% in size;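 on activation: HepG2 cells stably carrying human CAR and a CYP2B6 luciferase reporter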
# STATED CONDITIONS: HepG2 hCAR CYP2B6-luciferase, agonist mode, 24 h; series mostly up to 92.4 µM
Results filed as inconclusive are left out. Calls of active or inactive are those of the source. Calls follow the shape of the dose curve; as a rule, active = well fitted activation curve with a large enough effect in the repeat runs; inconclusive = weak or mixed curves; inactive = no such curve, though single readings can be large or run the other way.
Mark one answer only. Choices: 1 = active, -1 = inactive

CCS(=O)(=O)C(C)(C)S(=O)(=O)CC :: -1
COP(N)(=S)Oc1ccccc1C(=O)OC(C)C (stereo not given) :: 1
Fc1cc(Br)ccc1CBr :: -1

Exam item: Answer briefly: the call reported for CC1(C(=O)Nc2ccc(O)c(Cl)c2Cl)CCCCC1 in this assay.
Marked response: -1

Exam item: Answer briefly: the call reported for CCC(C)(C)c1cc(-n2nc3ccccc3n2)c(O)c(C(C)(C)CC)c1 in this assay.
Marked response: -1

###

# EXPERIMENTAL PROTOCOL: A CellTox Green Cytotoxicity Assay to monitor cytotoxicity in HEK293 cells - 32 hour (AID 1224881); further: nearly all actives have a fitted effect of over 40% in size
# STATED CONDITIONS: CellTox Green fluorescence; series mostly up to 76.8 µM
Records with an inconclusive call do not appear. Activity calls are given as the source filed them. The call rests on the fitted dose curve; in most records, active means well fitted activation curve with a large enough effect in the repeat runs; inconclusive means weak or mixed curves; inactive means flat fitted curve, though single readings scatter.
Mark one answer only. Choices: 1 (active), -1 (inactive)

Here are 3 compounds together with their reported answers.
CC(=O)CC(c1ccc(Cl)cc1)c1c(O)c2ccccc2oc1=O (configuration not stated) :: -1
CNC(=O)Oc1cccc(C(C)C)c1 :: -1
CC(C)(C)NCC(O)c1cc(Cl)c(N)c(Cl)c1 (configuration not stated) :: -1

Exam item: Answer briefly: the call reported for N#Cc1ccncc1 in this assay.
Marked response: -1

Exam item: Answer briefly: the call reported for CC(C(=O)c1ccccc1)N(C)C (configuration not stated) in this assay.
Marked response: -1

Exam item: Answer briefly: the call reported for NC(=O)O in this assay.
Marked response: -1

Exam item: Answer briefly: the call reported for COP(=S)(OC)Oc1ccc(S(N)(=O)=O)cc1 in this assay.
Marked response: -1

Exam item: Answer briefly: the call reported for CNCC(=O)c1ccc(O)c(O)c1 in this assay.
Marked response: -1
